- SUBJECT_OF_TEST: FGFR3 enzyme (Homo sapiens (Human))
- Sequence (P22607 23-806): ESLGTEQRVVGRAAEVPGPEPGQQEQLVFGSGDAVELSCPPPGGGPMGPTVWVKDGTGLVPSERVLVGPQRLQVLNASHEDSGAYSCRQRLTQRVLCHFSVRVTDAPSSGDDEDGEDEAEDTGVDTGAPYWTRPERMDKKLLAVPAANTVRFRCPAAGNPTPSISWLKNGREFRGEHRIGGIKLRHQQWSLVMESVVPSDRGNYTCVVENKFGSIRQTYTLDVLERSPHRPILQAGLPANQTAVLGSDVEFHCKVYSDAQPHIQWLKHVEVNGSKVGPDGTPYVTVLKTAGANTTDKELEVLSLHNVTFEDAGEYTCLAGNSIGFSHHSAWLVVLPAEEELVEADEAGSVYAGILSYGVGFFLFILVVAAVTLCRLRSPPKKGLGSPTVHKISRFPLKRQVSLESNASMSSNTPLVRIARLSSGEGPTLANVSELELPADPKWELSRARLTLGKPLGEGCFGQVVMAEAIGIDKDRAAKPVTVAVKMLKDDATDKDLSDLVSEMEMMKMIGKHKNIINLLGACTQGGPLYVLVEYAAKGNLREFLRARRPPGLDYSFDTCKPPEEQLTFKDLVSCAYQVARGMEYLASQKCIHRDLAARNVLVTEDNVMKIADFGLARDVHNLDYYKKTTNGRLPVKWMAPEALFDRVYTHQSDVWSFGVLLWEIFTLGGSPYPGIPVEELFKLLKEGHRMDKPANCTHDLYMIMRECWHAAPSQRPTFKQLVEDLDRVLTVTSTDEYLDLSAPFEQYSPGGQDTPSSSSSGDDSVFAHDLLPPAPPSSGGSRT
- PROTOCOL_SUMMARY: FGFR Enzymatic Assay (FRET peptide phosphorylation), FGFR3
- Type: biochemical
- ASSAY_CONDITIONS: FGFR3 selectivity; pre-incubated for 4 hours
OBSERVATION_TYPE: FGFR1/FGFR3 IC50 ratio

> print(dat)
                                    compound                      subject.of.test  measurement
 1  COc1cc(OC)c(F)c(N2Cc3cnc(-c4cnn(CCN5CCC(OC)C5)c4)cc3C3(CC3)C2=O)c1F (stereo not shown)  FGFR3 enzyme (Homo sapiens (Human))           >5
 2  COc1cccc(N2C(=O)N(c3c(F)c(OC)cc(OC)c3F)Cc3cnc(-c4cn(C)nc4C)cc32)c1  FGFR3 enzyme (Homo sapiens (Human))           >3
 3  COc1cc(OC)c(F)c(N2Cc3cnc(-c4cn(C)nc4C)cc3N(c3cncc(C)n3)C2=O)c1F  FGFR3 enzyme (Homo sapiens (Human))           >5
 4  COc1cc(OC)c(F)c(N2Cc3cnc(-c4cn(C)nc4C)cc3N(C3(C#N)CC3)C2=O)c1F  FGFR3 enzyme (Homo sapiens (Human))           >5
 5  CCN1C(=O)N(c2c(F)c(OC)cc(OC)c2F)Cc2cnc(-c3ccc(CC#N)cc3)cc21  FGFR3 enzyme (Homo sapiens (Human))           >5
 6  COc1cc(OC)c(F)c(N2Cc3cnc(-c4cnn(C5(CC#N)CN(C(C)=O)C5)c4)cc3C3(CC3)C2=O)c1F  FGFR3 enzyme (Homo sapiens (Human))           >5
 7  COc1cc(OC)c(F)c(N2Cc3cnc(-c4cn(CC#N)nc4C)cc3C3(CC3)C2=O)c1F  FGFR3 enzyme (Homo sapiens (Human))           >5
 8  COc1cc(OC)c(F)c(N2Cc3cnc(-c4cnn(CCCN5CCOCC5)c4)cc3C3(CC3)C2=O)c1F  FGFR3 enzyme (Homo sapiens (Human))           >5
 9  COc1cc(OC)c(F)c(N2Cc3cnc(-c4cn(C)nc4C)cc3N(c3ccc(CC#N)cc3)C2=O)c1F  FGFR3 enzyme (Homo sapiens (Human))           >5
10  COc1cc(OC)c(F)c(N2Cc3cnc(-c4cncc(CN5CCOCC5)c4)cc3C3(CC3)C2=O)c1F  FGFR3 enzyme (Homo sapiens (Human))           >1
11  COc1cc(OC)c(F)c(N2Cc3cnc(-c4cn(C)nc4C)cc3N(c3ccc(F)c(F)c3)C2=O)c1F  FGFR3 enzyme (Homo sapiens (Human))           >3
12  COc1cc(OC)c(F)c(N2Cc3cnc(-c4cn(C)nc4C)cc3N(c3ccc(S(C)(=O)=O)cc3)C2=O)c1F  FGFR3 enzyme (Homo sapiens (Human))           >5
13  COc1cc(OC)c(F)c(N2Cc3cnc(-c4ccc(C5(C#N)CCC5)nc4)cc3N(c3ccncn3)C2=O)c1F  FGFR3 enzyme (Homo sapiens (Human))           >5
14  COc1cc(OC)c(F)c(N2Cc3cnc(-c4cnn(CCC5CCN(S(C)(=O)=O)CC5)c4)cc3C3(CC3)C2=O)c1F  FGFR3 enzyme (Homo sapiens (Human))          >10
15  CCc1cnc(N2C(=O)N(c3c(F)c(OC)cc(OC)c3F)Cc3cnc(-c4cn(C)nc4C)cc32)cn1  FGFR3 enzyme (Homo sapiens (Human))           >3
16  CCn1cnc(-c2cc3c(cn2)CN(c2c(F)c(OC)cc(OC)c2F)C(=O)C32CC2)c1  FGFR3 enzyme (Homo sapiens (Human))           >5
17  COc1cc(OC)c(F)c(N2Cc3cnc(-c4cn(C)nc4C)cc3N(Cc3cncnc3)C2=O)c1F  FGFR3 enzyme (Homo sapiens (Human))           >5
18  COc1cc(OC)c(F)c(N2Cc3cnc(-c4cn(C)nc4C)cc3N(Cc3cnn(C)c3)C2=O)c1F  FGFR3 enzyme (Homo sapiens (Human))           >5
19  COc1cc(OC)c(F)c(N2Cc3cnc(-c4cn(C)nc4C)cc3N(Cc3csc(C)n3)C2=O)c1F  FGFR3 enzyme (Homo sapiens (Human))           >5
20  COc1cc(OC)c(F)c(N2Cc3cnc(-c4cn(C)nc4C)cc3N(c3ccccc3F)C2=O)c1F  FGFR3 enzyme (Homo sapiens (Human))           >3
21  COc1cc(OC)c(F)c(N2Cc3cnc(-c4cn(C5CCN(C)C5)nc4C)cc3C3(CC3)C2=O)c1F (stereo not shown)  FGFR3 enzyme (Homo sapiens (Human))           >3
22  COc1cc(OC)c(F)c(N2Cc3cnc(-c4cn(C)nc4C)cc3N(Cc3ccncn3)C2=O)c1F  FGFR3 enzyme (Homo sapiens (Human))           >5

====

- SUBJECT_OF_TEST: UniProt:P22607
- PROTOCOL_SUMMARY: FGFR Enzymatic Assay (FRET peptide phosphorylation), FGFR3
- Assay type: biochemical
- ASSAY_CONDITIONS: FGFR3 selectivity; pre-incubated for 4 hours
OBSERVATION_TYPE: FGFR1/FGFR3 IC50 ratio

> print(dat)
                                    compound  subject.of.test  measurement
 1  COc1cc(OC)c(F)c(N2Cc3cnc(-c4cn(C)nc4C)cc3N(Cc3ccc(F)cc3)C2=O)c1F [Example 34]   UniProt:P22607           >5
 2  COc1cc(OC)c(F)c(N2Cc3cnc(-c4cn(C)nc4C)cc3N(Cc3ccc(F)c(F)c3)C2=O)c1F [Example 73]   UniProt:P22607           >5
 3  CCN1C(=O)N(c2c(F)c(OC)cc(OC)c2F)Cc2cnc(-c3ccc(C4(C#N)CC4)cc3)cc21 [Example 183]   UniProt:P22607           >3
 4  CCn1cc(N2C(=O)N(c3c(F)c(OC)cc(OC)c3F)Cc3cnc(-c4cn(C)nc4C)cc32)cn1 [Example 131]   UniProt:P22607           >3
 5  COc1cc(OC)c(F)c(N2Cc3cnc(-c4cn(C)nc4C)cc3N(c3ccc4[nH]ncc4c3)C2=O)c1F [Example 134]   UniProt:P22607           >3
 6  COc1cc(OC)c(F)c(N2Cc3cnc(-c4csc(N(C)C)n4)cc3C3(CC3)C2=O)c1F [Example 160]   UniProt:P22607           >5
 7  COc1cc(OC)c(F)c(N2Cc3cnc(-c4cn(C)nc4C)cc3N(c3ccnnc3)C2=O)c1F [Example 57]   UniProt:P22607          >10
 8  COc1cc(OC)c(F)c(N2Cc3cnc(-c4cn(C)nc4C)cc3N(c3cnccn3)C2=O)c1F [Example 70]   UniProt:P22607           >5
 9  COc1cc(OC)c(F)c(N2Cc3cnc(-c4cn(C)nc4C)cc3N(c3cccc(-c4cnnn4C)c3)C2=O)c1F [Example 89]   UniProt:P22607           >5
10  CCn1cc(CN2C(=O)N(c3c(F)c(OC)cc(OC)c3F)Cc3cnc(-c4cn(C)nc4C)cc32)cn1 [Example 39]   UniProt:P22607          >10
11  COc1cc(OC)c(F)c(N2Cc3cnc(-c4cn(C)nc4C)cc3N(c3ccc(F)cc3)C2=O)c1F [Example 40]   UniProt:P22607          >10
12  COc1cc(OC)c(F)c(N2Cc3cnc(-c4cnn(CC5CCCS(=O)(=O)N5)c4)cc3C3(CC3)C2=O)c1F (stereo not shown) [Example 162]   UniProt:P22607           >5
13  CCN1C(=O)N(c2c(F)c(OC)cc(OC)c2F)Cc2cnc(-c3cn(CCN4CCOCC4)nc3C)cc21 [Example 49]   UniProt:P22607           >5
14  COc1cc(OC)c(F)c(N2Cc3cnc(-c4cn(C)nc4C)cc3N(c3ccc4ccncc4c3)C2=O)c1F [Example 63]   UniProt:P22607          >10
15  COc1cc(OC)c(F)c(N2Cc3cnc(-c4cn(C)nc4C)cc3N(C[C@H]3CCOC3)C2=O)c1F [Example 108]   UniProt:P22607           >3
16  COc1cc(OC)c(F)c(N2Cc3cnc(-c4cncc(Cl)c4)cc3C3(CC3)C2=O)c1F [Example 11]   UniProt:P22607           >1
17  CNS(=O)(=O)c1cccc(N2C(=O)N(c3c(F)c(OC)cc(OC)c3F)Cc3cnc(-c4cn(C)nc4C)cc32)c1 [Example 111]   UniProt:P22607           >3
18  COc1cc(OC)c(F)c(N2Cc3cnc(-c4cn(C)nc4C)cc3N(Cc3cccnn3)C2=O)c1F [Example 88]   UniProt:P22607           >5
19  COc1cc(OC)c(F)c(N2Cc3cnc(-c4cn(CCN(C)C)nc4C)cc3C3(CC3)C2=O)c1F [Example 164]   UniProt:P22607           >3
20  COc1cc(OC)c(F)c(N2Cc3cnc(-c4cn(C)nc4C)cc3N(c3cncnc3)C2=O)c1F [Example 61]   UniProt:P22607          >10
21  CCN1C(=O)N(c2c(F)c(OC)cc(OC)c2F)Cc2cnc(-c3ccc(C(C)(C)C#N)nc3)cc21 [Example 26]   UniProt:P22607           >5
22  CCN1C(=O)N(c2c(F)c(OC)cc(OC)c2F)Cc2cnc(-c3ccc(C(=O)NC4CC4)nc3)cc21 [Example 176]   UniProt:P22607          >10
